# Target entity: T1, PSMA Fab
# T1 construct: also called Anti-PSMA Fab; 006 PSMA Fab
# Assay explanation: clonal phage ELISA; biotinylated PSMA Fab on neutravidin plate, pre-incubated with PSMA antigen as competitor; anti-M13 HRP detection
Where no end group is shown, it is not given here.
Answer each item with its documented Phage binding ELISA signal, Anti-PSMA Fab with PSMA antigen.
Numbers only.

Known Phage binding ELISA signal, Anti-PSMA Fab with PSMA antigen results, listed for orientation:
Binder	Data value
GDHYCKPDWMCSGF [Phage-3408]	0.071
AQGVCIPQWMCDGF (cysteine pairing not given here; also: fused to pIII of bacteriophage) [Phage-3406]	0.0715
VEPLCRPMWMCEGI [Phage-3410]	0.122
IMPTCVPQWMCNGF [Phage-3418]	0.093
DFVRCVPDWMCQGF [Phage-3414]	0.0627
METWCVPTWMCTGF [Phage-3415]	0.0748

# per-item lookup of Phage binding ELISA signal, Anti-PSMA Fab with PSMA antigen; items listed below
1. VERACRPVWMCQGF [Phage-3417]
2. DTFMCRPSWMCNGF [Phage-3409]
3. ELVRCIPVWMCQGF [Phage-3412]
4. SEILCRPAWMCTGF [Phage-3407]
5. MLPYCVPQWMCMGF [Phage-3419]
6. SLAQCVPEWMCFGF [Phage-3411]
7. SVKVCKPAWMCAGF (cysteine pairing not given here; also: fused to pIII of bacteriophage) [Phage-3413]

Result:
1: 0.0907; 2: 0.072; 3: 0.368; 4: 0.104; 5: 0.147; 6: 0.113; 7: 0.102

Query DTWICKPEWMCMGF [Phage-3416] yields Phage binding ELISA signal, Anti-PSMA Fab with PSMA antigen of 0.0802
